# MEASUREMENT DESCRIPTION: VEGF mRNA induction via HIF pathway, dose response, cell-based, U2OS, RT-PCR, dry powder (AID 488843)
# MEASUREMENT PARAMETERS: U2OS VEGF mRNA induction, RT-PCR; at 38 µM (top of the series)
Label rule, in plain words: activation (VEGF mRNA increase) of 10% and up is true, under 10% is false.

Take a look at these entries with their results.
O=C(NCc1ccccc1)c1cc(-c2ccccc2)on1 | true
O=C(Nc1cnc2ccccc2c1)c1cc(-c2ccccc2)on1 | false
CC(C)(C)CCNC(=O)c1cc(-c2ccccc2)on1 | true
Cc1cccc(NC(=O)c2cc(-c3ccccc3)on2)n1 | false

Could you verify whether the entry `Cc1cccc(CNC(=O)c2cc(-c3ccccc3)on2)c1` shows activation (VEGF mRNA increase) of no less than 10%? true

Okay, and `O=C(c1cc(-c2ccccc2)on1)N1CCC(CO)CC1` ? true

* * *

# MEASUREMENT DESCRIPTION: VEGF mRNA induction via HIF pathway, dose response, cell-based, U2OS, RT-PCR, dry powder (AID 488843)
# MEASUREMENT PARAMETERS: U2OS VEGF mRNA induction, RT-PCR; at 38 µM (top of the series)
Activity calls are given as the source filed them.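 Rule for the calls: active = compound whose fitted half-maximal VEGF mRNA rise lies within ten times its top tested dose; inconclusive = flat response of 30 to 70% or a poor curve fit; inactive = the rest, including reverse-direction effects.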
Assign activation (VEGF mRNA increase) to each entry below.

Worked cases, answers included:
O=C(Nc1ncc2ccccc2n1)c1cc(-c2ccccc2)on1 | 17.1% (inactive)
O=C(NC1Cc2ccccc2C1)c1cc(-c2ccccc2)on1 | -0.187% (inactive)
O=C(Nc1nc2ccccc2s1)c1cc(-c2ccccc2)on1 | 4.08% (inactive)

Could you report activation (VEGF mRNA increase) for every entry in the following list?
1. O=C(NC1CCc2ccccc2C1)c1cc(-c2ccccc2)on1 (stereo not drawn)
2. O=C(c1cc(-c2ccccc2)on1)N1CCC(N2CCOCC2)CC1
3. O=C(Nc1nnc(-c2ccccc2)s1)c1cc(-c2ccccc2)on1

1: 14.2% (inactive); 2: 13% (inactive); 3: 3.52% (inactive)

# per-item lookup of activation (VEGF mRNA increase); items listed below
1. O=C(Nc1nc(-c2ccccc2)cs1)c1cc(-c2ccccc2)on1
2. Cn1c(NC(=O)c2cc(-c3ccccc3)on2)nc2ccccc21

1: 3.91% (inactive); 2: 2.87% (inactive)

* * *

# MEASUREMENT DESCRIPTION: VEGF mRNA induction via HIF pathway, dose response, cell-based, U2OS, RT-PCR, dry powder (AID 488843)
# MEASUREMENT PARAMETERS: U2OS VEGF mRNA induction, RT-PCR; at 38 µM (top of the series)
The source made the active and inactive calls.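 The calls were made as follows: active = compound whose fitted half-maximal VEGF mRNA rise lies within ten times its top tested dose; inconclusive = flat response of 30 to 70% or a poor curve fit; inactive = the rest, including reverse-direction effects.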
What activation (VEGF mRNA increase) was measured for each of the following?

Solved entries (count: 5):
O=C(c1cc(-c2ccccc2)on1)N1CCN(c2ccncc2)CC1 | 34.7% (inactive)
O=C(c1cc(-c2ccccc2)on1)N1CCC(N2CCCC2)CC1 | 9.95% (inactive)
O=C(c1cc(-c2ccccc2)on1)N1CCc2cccnc21 | 5.19% (inactive)
O=C(Nc1ncc(-c2ccccc2)o1)c1cc(-c2ccccc2)on1 | 1.3% (inactive)
O=C(NCCN1CCCCC1)c1cc(-c2ccccc2)on1 | 14.3% (inactive)

List the reported activation (VEGF mRNA increase) of each compound below.
1. O=C(NCC1CCCCC1)c1cc(-c2ccccc2)on1
2. CN(C)CCNC(=O)c1cc(-c2ccccc2)on1
3. Cc1ccc(CNC(=O)c2cc(-c3ccccc3)on2)cc1
4. CN1CCN(C(=O)c2cc(-c3ccccc3)on2)CC1

-2.06% (inactive)
4% (inactive)
-3.43% (inactive)
-1.09% (inactive)

Respectfully, I request activation (VEGF mRNA increase) for each entry included below.
1. Cc1ccccc1CNC(=O)c1cc(-c2ccccc2)on1
2. O=C(Nc1cn2ccccc2n1)c1cc(-c2ccccc2)on1
3. Cn1c(-c2ccccc2)cnc1NC(=O)c1cc(-c2ccccc2)on1

22.6% (inactive)
20.3% (inactive)
-1.36% (inactive)
